# study system: T1, Biotinylated human DLL3 (human, UniProt Q9NYJ7 27-492, biotinylated (site not stated))
# T1 construct: also called Delta-like ligand 3; Delta Like Canonical Notch Ligand 3
# T1 sequence (looked up): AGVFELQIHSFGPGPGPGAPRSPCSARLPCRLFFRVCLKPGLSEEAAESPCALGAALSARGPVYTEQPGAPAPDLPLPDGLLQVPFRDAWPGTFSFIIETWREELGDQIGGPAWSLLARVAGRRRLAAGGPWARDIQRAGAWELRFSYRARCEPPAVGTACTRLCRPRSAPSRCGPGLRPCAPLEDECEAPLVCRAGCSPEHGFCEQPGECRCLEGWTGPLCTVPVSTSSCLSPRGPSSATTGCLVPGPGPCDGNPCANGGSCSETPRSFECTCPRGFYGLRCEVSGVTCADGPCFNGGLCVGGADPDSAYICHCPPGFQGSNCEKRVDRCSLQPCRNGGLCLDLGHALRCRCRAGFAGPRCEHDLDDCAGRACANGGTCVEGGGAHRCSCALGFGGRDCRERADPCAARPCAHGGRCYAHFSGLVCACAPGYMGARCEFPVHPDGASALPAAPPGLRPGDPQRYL
# assay method text: SPR, biotin-hDLL3 on SA chip
pKd: −log10 of the molar value. Bridge positions count the residues as written; N and C are the ends. Square brackets hold non-standard residues; d marks the D form. * marks the point of attachment. DOTA = O=C(O)CN1CCN(CC(=O)O)CCN(CC(=O)*)CCN(CC(=O)O)CC1; 2Nal = N[C@@H](Cc1ccc2ccccc2c1)C(=O)O; Cha = N[C@@H](CC1CCCCC1)C(=O)O; Cba = N[C@@H](CC1CCC1)C(=O)O
test readout: pKd

Query: Fill in: pKd of Ac-MSDCWLQ[2Nal]NCPFD[dK](DOTA)-NH2 (disulfide 4-10; SMILES CSCC[C@H](NC(C)=O)C(=O)N[C@@H](CO)C(=O)N[C@@H](CC(=O)O)C(=O)N[C@H]1CSSC[C@@H](C(=O)N2CCC[C@H]2C(=O)N[C@@H](Cc2ccccc2)C(=O)N[C@@H](CC(=O)O)C(=O)N[C@H](CCCCNC(=O)CN2CCN(CC(=O)O)CCN(CC(=O)O)CCN(CC(=O)O)CC2)C(N)=O)NC(=O)[C@H](CC(N)=O)NC(=O)[C@H](Cc2ccc3ccccc3c2)NC(=O)[C@H](CCC(N)=O)NC(=O)[C@H](CC(C)C)NC(=O)[C@H](Cc2c[nH]c3ccccc23)NC1=O) [Cpd #62] is ___
Reply: 8.60

P. Ac-MSDCW[Cba]QWNCPFD[dK](DOTA)-NH2 (disulfide 4-10) [Cpd #70]
Q. Ac-MSDCW[Cha]QWNCPFD[dK](DOTA)-NH2 (disulfide 4-10) [Cpd #69]
Query: # compare pKd for P vs Q ; return the one with the smaller value Answer by stating the label of the chosen item.
Reply: Q
